B1: ZNF263 (parent)
chain: EKPYKCPECGEIFAHSSNLLRHQR

Variants of: B1
assayText: protein stability index of a GFP-peptide fusion (GPS, HEK-293T) (PSI 1-6); higher = more stable;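 also: lentivirally expressed fusions sorted by FACS into six bins by GFP to DsRed ratio, PSI derived from sequencing read proportions per bin multiplied by bin number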
conditionSummary: c terminus: a fixed tail appended
measuredProperty: protein stability index

The following variants have reported results that may help.
>>> observedmeasurement("N18E")
4.7
>>> observedmeasurement("P7Q")
2.46
>>> observedmeasurement("E11Q")
2.68

(Q) For the variant shown here, `P7N` , give the reported protein stability index.
(A) 2.21

(Q) Entry `Y4P` please
(A) 2.12

(Q) Entry `G10D` please
(A) 2.98

(Q) Entry `E11H` please
(A) 1.89

(Q) Entry `H22E` please
(A) 2.55

(Q) Entry `S16P` please
(A) 2.81

(Q) Entry `R24E` please
(A) 4.38

(Q) Entry `K2H` please
(A) 3.36

(Q) Entry `E11I` please
(A) 2.19

(Q) Entry `S16D` please
(A) 2.47
